# credit: PubChem BioAssay (NCI)

# Tested on: KM20L2 colon
# procedure.details: NCI tumour cell line growth inhibition, 48 h
Below, each of the compounds is paired with its reported TGI value.
Give your result in µM as a bare value.

compound	u	TGI
CCCCC/C=C1\CCC(CN(C)C)C1=O (stereo not given)	µM	30.1

**Query** Which measured TGI value corresponds to `COc1ccc2c(c1)CCCN2CCCCCCCCCCN(CCC(C)C)CCC(C)C` ?
**Result** 23.1

---

Below, each of the compounds is paired with its reported TGI value.
# Tested on: A498 renal
# procedure.details: NCI tumour cell line growth inhibition, 48 h

// below: answered compounds
compound	TGI
COC1(OC)CCCc2c1no[n+]2[O-]	> 100 µM
CSc1ccsc1-c1sc(-c2cc(SC)c(-c3sc(-c4cc(SC)c(-c5sccc5SC)s4)cc3SC)s2)cc1SC	> 100 µM
COc1cccc(C2c3cc4c(cc3OC(C)(N3CCCC3)C2C)OCO4)c1 (stereo unspecified)	85.3 µM

**Query** Which measured TGI value corresponds to `COc1ccccc1Nc1ncc(-c2ccccc2)o1` ?
**Result** > 25 µM

**Query** Which measured TGI value corresponds to `CCN(CC)CCSc1c2ccccc2nc2c(OC)ccc(OC)c12` ?
**Result** 32.5 µM

---

# Test system: UO-31 renal
# procedure.details: NCI tumour cell line growth inhibition, 48 h
measurement.name: TGI

// below: answered compounds
compound	TGI
O=C(Nc1cc(C(F)(F)F)ccc1Cl)c1cccc(NC2=C(Cl)C(=O)N(Cc3ccccc3)C2=O)c1	58.2 µM
CC(C)OC(=O)[C@H](C)NP(=O)(OC[C@H]1O[C@@H](n2ccc(=O)[nH]c2=O)[C@](C)(F)[C@@H]1O)Oc1ccccc1 (stereo not given in full)	> 100 µM
CCOC(=O)c1ccc(N=Nc2cc(C(=O)OCC)ccc2O)cc1	> 100 µM
CC1(C)OC[C@@H]([C@H](O)C2C=CC(=O)S2)O1 (stereo not given in full)	50 µM

From here, focus on the item given below.
**Query** # get_value(readout= TGI, system= UO-31 renal) for `COc1cccc2nc3c(C(=O)NCCN(C)C)cccc3cc12`
**Result** 2.99 µM

---

# Tested on: UACC-62 melanoma
# procedure.details: NCI tumour cell line growth inhibition, 48 h
measurement.name: TGI

molecule	subject.of.test	TGI
CC(=O)O[C@H]1CC[C@@]2(C)C(=CC[C@H]3[C@@H]4C/C(=C\c5ccc(N(C)C)cc5)[C@H](OC(C)=O)[C@@]4(C)CC[C@@H]32)C1	UACC-62 melanoma	20.7 µM
C=C(Nc1nc2ccc(C)cc2s1)C(=O)C(CC)C(=O)C(CC)CC1C(=O)NC(=O)NC1=O (stereo not given)	UACC-62 melanoma	> 100 µM
CC(C)(C)[Si](C)(C)Oc1ccc(C2CNC(=O)C23CCC(=O)N3Cc2ccccc2)cc1 (stereo not given)	UACC-62 melanoma	32 µM
c1ccc2c(c1)SCCC2NC1=NCCO1 (stereo not given)	UACC-62 melanoma	> 100 µM
O=S(=O)(Nc1ccc(Cl)cc1Cl)c1ccc(-c2cnc(C3CC3)o2)cc1	UACC-62 melanoma	26.7 µM
COc1cccc(C2CC23C(=O)NC(=O)NC3=O)c1 (stereo not given)	UACC-62 melanoma	> 100 µM
C=CCc1ccc(O)c(-c2ccc(O)c(CC=C)c2)c1	UACC-62 melanoma	30 µM
C=C(C)C1CCC2(C)CC1c1c(c(C)cc3c1[nH]c1ccccc13)O2 (stereo not given)	UACC-62 melanoma	> 25 µM

**Query** # get_value(readout= TGI, system= UACC-62 melanoma) for CSc1nc(NC2OC(COC(C)=O)C(OC(C)=O)C(OC(C)=O)C2OC(C)=O)c(N=CC=Nc2c(NC3OC(COC(C)=O)C(OC(C)=O)C(OC(C)=O)C3OC(C)=O)nc(SC)n(C)c2=O)c(=O)n1C (stereo not given)
**Result** > 100 µM

**Query** # get_value(readout= TGI, system= UACC-62 melanoma) for `O=C(NNC(=O)c1ccccc1O)c1cccc(Br)c1`
**Result** > 100 µM

**Query** # get_value(readout= TGI, system= UACC-62 melanoma) for `C=CCN(C(=O)CNC(=O)C(F)(F)F)c1cc(OCc2ccccc2)c2c(c1)c(C)cn2S(=O)(=O)c1ccccc1`
**Result** > 100 µM

**Query** # get_value(readout= TGI, system= UACC-62 melanoma) for COc1ccc(-c2nsc3c2NC(=O)CC3c2cccc(OC)c2)cc1 (stereo not given)
**Result** > 100 µM

**Query** # get_value(readout= TGI, system= UACC-62 melanoma) for `CCOC(=O)/C=C(/C(=O)OCC)n1cnc2c(=O)[nH]c(NC(C)=O)nc21`
**Result** > 100 µM

**Query** # get_value(readout= TGI, system= UACC-62 melanoma) for `COc1ccc(-c2cc3ccccc3oc2=O)cc1OC`
**Result** > 100 µM

**Query** # get_value(readout= TGI, system= UACC-62 melanoma) for `CCc1c(Cl)c(C)cc(O)c1Cl`
**Result** > 100 µM

**Query** # get_value(readout= TGI, system= UACC-62 melanoma) for CC1(Br)Cc2ccccc2C1=O (stereo not given)
**Result** 3.63 µM

**Query** # get_value(readout= TGI, system= UACC-62 melanoma) for COC1CCCCN1C(=O)c1ccccc1 (stereo not given)
**Result** > 25.3 µM

**Query** # get_value(readout= TGI, system= UACC-62 melanoma) for `Cc1cc(C(F)(F)F)cc(-n2nc(NS(=O)(=O)c3cc(C)c(Cl)cc3S)nc2N)n1`
**Result** > 100 µM

**Query** # get_value(readout= TGI, system= UACC-62 melanoma) for C[N+](C)(C)CC1CCC/C1=N\OC(=O)c1ccccc1 (stereo not given)
**Result** > 100 µM

**Query** # get_value(readout= TGI, system= UACC-62 melanoma) for `CCOC(=O)[C@H](C)OC(=O)[C@@](C)(NC(=O)c1ccccc1C(=O)OC)[C@@H]1NC=C(C(=O)OC)CS1`
**Result** > 100 µM
